Reported IC50 values for the following molecules.
tested on: HSC-2; experiment: Cytotoxicity against human HSC2 cells by MTT assay; assay type: functional, cell-based
// note: answer is a bare numeric in µg/mL

Here is how some molecules turned out for IC50.
Requested read-out: IC50. Entry: COc1cc(O)c(-c2c(C)cc(O)c3c2C(=O)c2cccc(O)c2C3=O)c(O)c1C(C)=O 33

Requested read-out: IC50. Entry: COc1cc([C@@H]2c3cc4c(cc3[C@@H](O[C@@H]3O[C@@H]5CO[C@@H](C)O[C@H]5[C@H](O)[C@H]3O)[C@H]3COC(=O)[C@H]23)OCO4)cc(OC)c1O [ETOPOSIDE] 24

Requested read-out: IC50. Entry: COc1cc(O)c(C(C)=O)c(O)c1-c1c(C)cc(O)c2c1C(=O)c1cccc(O)c1C2=O 25

Next:
Requested read-out: IC50. Entry: COc1cc(O[C@@H]2O[C@H](CO)[C@@H](O)[C@H](O)[C@H]2O)c(-c2c(C)cc(O)c3c2C(=O)c2cccc(O)c2C3=O)c(O)c1C(C)=O [BULBINELONESIDE A] 36

###

system: HSC-2; experiment: Cytotoxicity against human HSC2 cells by MTT assay; assay type: functional, cell-based
ENDPOINT: IC50

Here is how some compounds turned out for IC50.
Requested read-out: IC50. Entry: CC(=O)c1c(O[C@@H]2OC[C@@H](O)[C@H](O[C@@H]3O[C@H](CO)[C@@H](O)[C@H](O)[C@H]3O)[C@H]2O)cc(O)c(-c2c(C)cc(O)c3c2C(=O)c2cccc(O)c2C3=O)c1O [BULBINELONESIDE E] > 120 µg/mL

Requested read-out: IC50. Entry: CC(=O)c1c(O[C@@H]2O[C@H](CO)[C@@H](O)[C@H](O)[C@H]2O)cc(O)c(-c2c(C)cc(O)c3c2C(=O)c2cccc(O)c2C3=O)c1O [BULBINELONESIDE D] > 120 µg/mL

Note: attention shifts to another entry.
Requested read-out: IC50. Entry: CC(=O)c1c(O)cc(O[C@@H]2OC[C@@H](O)[C@H](O)[C@H]2O)c(-c2c(C)cc(O)c3c2C(=O)c2cccc(O)c2C3=O)c1O [BULBINELONESIDE B] 56 µg/mL
